TGI for assorted compounds
tested on: A549 NSCLC; assay: NCI tumour cell line growth inhibition, 48 h
readout.kind: TGI

{"compound": "O=C(NO)C12C3C4C1C1C2C3C41C(=O)NO (stereo not drawn)", "experimental.value": "> 100 µM"}
{"compound": "Nc1ccc(/C=N/Nc2ccnc3c(N)cccc23)c2cccnc12", "experimental.value": "3.24 µM"}
{"compound": "Cc1ccc(C)c(NC(=O)CC/C(=N\\NC(=O)C(N)=O)C(C)C(=O)c2ccc(O)cc2)c1 (stereo not drawn)", "experimental.value": "> 100 µM"}
{"compound": "O=c1ccn2n1CCCCC2", "experimental.value": "> 100 µM"}
{"compound": "CCOP(=O)(OCC)/C(C#N)=C/c1cccn1CC(C)C", "experimental.value": "> 100 µM"}
{"compound": "COc1cc(/C=C2\\COc3ccc(O)c(O)c3C2=O)cc(OC)c1", "experimental.value": "12.1 µM"}
{"compound": "Cc1cc(Cl)cc2c1NC(=O)C2(O)C(C)C(=O)c1ccc(Cl)cc1 (stereo not drawn)", "experimental.value": "> 100 µM"}
{"compound": "FC(F)(Sc1ccccc1)c1nc2ccccc2o1", "experimental.value": "> 100 µM"}
{"compound": "OCC12C3C4C1C1C2C3C41CO (stereo not drawn)", "experimental.value": "> 100 µM"}
{"compound": "CC(C)=CC(=O)Cc1nc2cc(C)c(C)cc2[nH]c1=O", "experimental.value": "> 100 µM"}
{"compound": "Nc1ccn(C2CC(CO)C(O)C2O)c(=O)n1 (stereo not drawn)", "experimental.value": "> 57.7 µM"}
{"compound": "COc1cc(-n2cc(-c3ccc(Cl)cc3)[nH]c2=O)cc(OC)c1OC", "experimental.value": "> 100 µM"}
{"compound": "COc1cc(-c2cc(-c3nc4ccc(Cl)cc4[nH]3)[nH]n2)cc(OC)c1OC", "experimental.value": "13.1 µM"}
{"compound": "Cc1ccc(-c2csc(=Nc3c(C)n(C)n(-c4ccccc4)c3=O)n2CCO)cc1", "experimental.value": "> 100 µM"}
{"compound": "CCOC(=O)[C@@]12CCC(C1=O)[C@](C)(O)C[C@@H]2c1ccccc1", "experimental.value": "> 100 µM"}
{"compound": "NS(=O)(=O)c1ccc(N2N=C3c4ccccc4CC3C2c2ccc(Cl)cc2)cc1 (stereo not drawn)", "experimental.value": "34 µM"}
{"compound": "N#Cc1cc([N+](=O)[O-])ccc1NC(=O)C(=O)C(C(=O)/C=C/c1ccccc1)C1OC(=O)c2ccccc21 (stereo not drawn)", "experimental.value": "> 100 µM"}
{"compound": "CN(C)CC1(C)CC/C(=C\\c2ccccc2)C1=O (stereo not drawn)", "experimental.value": "> 100 µM"}
{"compound": "COc1cc([N+](=O)[O-])ccc1NC1=CC(=O)CCC1", "experimental.value": "> 100 µM"}
{"compound": "CCC(C)C(NC(=O)C1CCCN1C(=O)C(NC(=O)C(C)N)C(C)C)C(N)=O (stereo not drawn)", "experimental.value": "> 100 µM"}
{"compound": "NCCC(O)(P(=O)(O)O)P(=O)(O)O", "experimental.value": "> 100 µM"}
{"compound": "CCN(CC)C(=O)COc1ccc(Br)cc1Br", "experimental.value": "> 100 µM"}
{"compound": "COc1ccc(C(c2c(O)c3ccccc3n(C)c2=O)c2c(O)c3ccccc3n(C)c2=O)cc1", "experimental.value": "> 100 µM"}
{"compound": "COc1ccc(O)c(C=NCCCN=Cc2cc(OC)ccc2O)c1", "experimental.value": "> 100 µM"}
{"compound": "O=C1C(=O)C(Br)(Br)C(Br)=C1Br", "experimental.value": "> 100 µM"}
{"compound": "O=C1C=C(NCCc2cc(Br)c(O)c(Br)c2)C(=O)c2ncccc21", "experimental.value": "4.79 µM"}
{"compound": "COc1ccc(/C=C2\\CCC(C)(CN(C)C)C2=O)cc1 (stereo not drawn)", "experimental.value": "> 100 µM"}
{"compound": "CO[C@@H]1[C@H](OC(=O)NC(=O)CCl)CC[C@]2(CO2)[C@H]1[C@@]1(C)O[C@@H]1CC=C(C)C", "experimental.value": "44.2 µM"}
{"compound": "O=C(CCc1cccc(O)c1)NCCc1ccc(O)cc1", "experimental.value": "> 100 µM"}
{"compound": "COc1ccc(N2C(=O)C3c4[nH]c5cccc(C)c5c4C4CCC(C(C)(C)C)CC4C3C2=O)cc1 (stereo not drawn)", "experimental.value": "> 10 µM"}
{"compound": "Cc1cc(Cl)ccc1N=C1NC(=O)C(CC(=O)Nc2ccc(Cl)cc2Cl)S1 (stereo not drawn)", "experimental.value": "> 100 µM"}
{"compound": "C[C@H]1[C@H](C)CC[C@]2(C(=O)O)CC[C@]3(C)C(=CC[C@@H]4[C@@]5(C)C/C(=C/c6ccco6)C(=O)C(C)(C)[C@@H]5CC[C@]43C)[C@H]12", "experimental.value": "16.8 µM"}
{"compound": "N#CC1=C(N)OC(c2ccc([N+](=O)[O-])cc2)C1(C#N)C#N (stereo not drawn)", "experimental.value": "> 93.3 µM"}

# credit: PubChem BioAssay (NCI)
